Sourced from paper PMC3973950

- assayNotes: In vitro cytotoxicity by MTT assay, HEK 293
- Assay type: cell-based, human
- settings: human, HEK 293 cells, 3.7 μM, read-out: % cytotoxicity (100 − % cell survival) of HEK 293 cell line
Classification field. Basis: cytotoxicity at 72 h, 3.7 µM. Definitions: class 1 (below 30%), class 2 (30% to below 40%), class 3 (40% or more)

# example entries with known answers
inputSmiles: Nc1nnc(S(=O)(=O)NC(=O)c2ccccc2N)s1
labelClass: class 3
--
inputSmiles: Nc1ccc(S(=O)(=O)Nc2nnc(S(=O)(=O)NC(=O)c3ccccc3O)s2)cc1
labelClass: class 1
--
inputSmiles: CC(=O)Nc1ccc(S(=O)(=O)Nc2nnc(S(=O)(=O)NC(=O)c3cccc([N+](=O)[O-])c3)s2)cc1
labelClass: class 3
--
inputSmiles: O=C(NS(=O)(=O)c1nnc(N=Cc2ccccc2)s1)c1ccccc1
labelClass: class 3
--
inputSmiles: Nc1ccc(S(=O)(=O)Nc2nnc(S(=O)(=O)NC(=O)c3ccccc3N)s2)cc1
labelClass: class 3
--
inputSmiles: CC(=O)Nc1ccc(S(=O)(=O)Nc2nnc(S(=O)(=O)NC(=O)c3ccc(N)cc3)s2)cc1
labelClass: class 2
--
inputSmiles: O=C(NS(=O)(=O)c1nnc(N=Cc2ccc(Cl)cc2)s1)c1ccccc1
labelClass: class 2
--
inputSmiles: CC(=O)Nc1ccc(S(=O)(=O)Nc2nnc(S(=O)(=O)NC(=O)c3ccc(Cl)cc3)s2)cc1
labelClass: class 1

Q. Which category does the recorded cytotoxicity at 72 h, 3.7 µM put O=C(NS(=O)(=O)c1nnc(N=Cc2ccc(O)cc2)s1)c1ccccc1 in?
A. class 2

Q. Which category does the recorded cytotoxicity at 72 h, 3.7 µM put Nc1nnc(S(=O)(=O)NC(=O)c2ccccc2O)s1 in?
A. class 3

Q. Which category does the recorded cytotoxicity at 72 h, 3.7 µM put CC(=O)Nc1ccc(S(=O)(=O)Nc2nnc(S(=O)(=O)NC(=O)c3ccccc3)s2)cc1 in?
A. class 2

Q. Which category does the recorded cytotoxicity at 72 h, 3.7 µM put COc1cc(C=Nc2nnc(S(=O)(=O)NC(=O)c3ccccc3)s2)ccc1O in?
A. class 2

Q. Which category does the recorded cytotoxicity at 72 h, 3.7 µM put COc1ccccc1C=Nc1nnc(S(=O)(=O)NC(=O)c2ccccc2)s1 in?
A. class 3
